- TARGET: ETA Receptor (Rattus norvegicus, UniProt P26684)
- Construct: endogenous in cells; host or cells: MMQ rat pituitary cells (membranes)
- Sequence (P26684 21-426): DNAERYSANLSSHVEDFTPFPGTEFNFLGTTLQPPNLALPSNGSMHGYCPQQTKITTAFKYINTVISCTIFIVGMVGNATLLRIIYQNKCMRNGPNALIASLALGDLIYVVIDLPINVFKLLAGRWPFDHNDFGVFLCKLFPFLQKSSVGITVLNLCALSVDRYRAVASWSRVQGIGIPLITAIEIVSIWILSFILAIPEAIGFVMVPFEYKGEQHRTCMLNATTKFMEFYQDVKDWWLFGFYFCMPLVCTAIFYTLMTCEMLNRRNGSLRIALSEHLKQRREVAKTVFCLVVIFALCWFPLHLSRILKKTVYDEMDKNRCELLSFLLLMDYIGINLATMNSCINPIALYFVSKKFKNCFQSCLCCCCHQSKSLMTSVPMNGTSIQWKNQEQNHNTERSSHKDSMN
- TEST METHOD NOTES: [125I]ET-1 binding to membranes from MMQ cells (ETA receptor binding assay, Table 4)
- RUN PARAMETERS: test compound at 1 μM; 0.1 nM [125I]ET-1, MMQ cell membranes, 4 hours at 25° C.
Decide using % Inhibition of ETA at 1 μM: a value greater than or equal to 90% is criterion met, a smaller one is criterion not met.

COMPOUND: COc1ccc(C2C(C(=O)O)C(c3ccc4c(c3)OCO4)CN2CC(=O)N2CCCC2)cc1 (stereo not shown) [Example 17]
CLASSIFICATION: criterion not met
--
COMPOUND: CCCN(C)C(=O)CN1CC(c2ccc(F)c(F)c2)C(C(=O)O)C1c1ccc(OC)cc1 (stereo not shown) [Example 144]
CLASSIFICATION: criterion not met
--
COMPOUND: COc1ccc(C2C(C(=O)O)C(c3ccc4c(c3)OCO4)CN2CC(=O)N(C)Cc2ccc(OC)c(OC)c2)cc1 (stereo not shown) [Example 73C]
CLASSIFICATION: criterion met
--
COMPOUND: CCCCN(C(=O)CN1CC(c2ccc3c(c2)OCO3)C(C(=O)O)C1c1ccc(OC)cc1)c1ccccc1 (stereo not shown) [Example 291]
CLASSIFICATION: criterion met
--
COMPOUND: CCCCN(CCCC)C(=O)CN1C[C@H](c2ccc3c(c2)OCO3)[C@@H](C(=O)O)[C@@H]1c1ccc(OC)cc1 (relative stereo) [Example 43]
CLASSIFICATION: criterion met
--
COMPOUND: CCCCN(CCCC)C(=O)CN1CC(c2ccc3c(c2)OCO3)C(C(=O)O)C1C1CCC(OC)CC1 (stereo not shown) [Example 160B]
CLASSIFICATION: criterion not met
--
COMPOUND: CCCOCCN1CC(c2ccc3c(c2)OCO3)C(C(=O)O)C1c1ccc(OC)cc1 (stereo not shown) [Example 5]
CLASSIFICATION: criterion met
--
COMPOUND: CCCC#CCN1CC(c2ccc3c(c2)OCO3)C(C(=O)O)C1c1ccc(OC)cc1 (stereo not shown) [Example 37]
CLASSIFICATION: criterion not met
--
COMPOUND: CCCN(CCN1CC(c2ccc3c(c2)OCO3)C(C(=O)O)C1c1ccc(OC)cc1)S(=O)(=O)c1ccc([N+](=O)[O-])cc1 (stereo not shown) [Example 298]
CLASSIFICATION: criterion met
--
COMPOUND: CCCN(CCN1C[C@H](c2ccc3c(c2)OCO3)[C@@H](C(=O)O)[C@@H]1c1ccc(OC)cc1)S(=O)(=O)CC(C)C (relative stereo) [Example 303]
CLASSIFICATION: criterion not met
--
COMPOUND: CCCN(C)C(=O)CN1CC(c2ccc(OC)c(OC)c2)C(C(=O)O)C1c1ccc(OC)cc1 (stereo not shown) [Example 54]
CLASSIFICATION: criterion not met
--
COMPOUND: COc1ccc(C2C(C(=O)O)C(c3ccc4c(c3)OCO4)CN2CC(=O)N(C)c2ccccc2)cc1 (stereo not shown) [Example 45]
CLASSIFICATION: criterion not met
--
COMPOUND: CCCCN(CCCC)C(=O)CN1CC(c2ccc(OC)cc2)C(C(=O)O)C1c1ccc(OC)cc1 (stereo not shown) [Example 149]
CLASSIFICATION: criterion not met
--
COMPOUND: CCCN(CCN1C[C@H](c2ccc3c(c2)OCO3)[C@@H](C(=O)O)[C@@H]1c1ccc(OC)cc1)S(=O)(=O)N(C)C (relative stereo) [Example 315]
CLASSIFICATION: criterion not met
--
COMPOUND: CCCN(CCN1CC(c2ccc3c(c2)OCO3)C(C(=O)O)C1c1ccc(OC)cc1)S(=O)(=O)c1ccc(OC(F)(F)F)cc1 (stereo not shown) [Example 300]
CLASSIFICATION: criterion met
